Value source: ChEMBL document CHEMBL4043297

Experimental Details: Volume of distribution in CD1 mouse at 0.17 mg/kg, iv as bolus dose by LC-MS/MS method
Format: ADME, organism-based
Assay Conditions: in vivo
Test Readout: Vd
I'd appreciate it if you included the unit after the number.

Input: Vd for Cc1[nH]c(C)c(-c2ccc(-c3ccc(OC(F)(F)F)cc3)nc2)c(=O)c1Cl ?
Output: 0.85 L/kg

====

Experimental Details: Tmax in CD1 mouse at 8.3 mg/kg administered via oral gavage by LC-MS/MS method
Format: ADME, organism-based
Assay Conditions: in vivo
Test Readout: Tmax (h)
Numbers only, in h.

Input: Which measured Tmax value corresponds to Cc1[nH]c(C)c(-c2ccc(OCc3ccc(OC(F)(F)F)cc3)nc2)c(=O)c1Cl ?
Output: 6

====

Experimental Details: Cmax in CD1 mouse at 10.36 mg/kg administered via oral gavage by LC-MS/MS method
Assay type: ADME, organism-based
Set-up: dose 10.36 mg/kg, route oral
Assay Conditions: in vivo
Test Readout: Cmax (ng/mL)
Numbers only, in ng/mL.

Input: Entry Cc1[nH]c(C)c(-c2ccc(-c3ccc(OC(F)(F)F)cc3)nc2)c(=O)c1Br : reported Cmax = ?
Output: 4100

====

Experimental Details: Oral bioavailability in CD1 mouse at 8.366 mg/kg administered via gavage by LC-MS/MS method
Type: ADME, organism-based
Assay Conditions: in vivo
Test Readout: bioavailability (%)
One number for each entry, in %.

Input: Suppose we examine the compound Cc1[nH]c(C)c(-c2ccc(-c3ccc(C(F)(F)F)cc3Cl)nc2)c(=O)c1Cl ; what bioavailability value has been reported?
Output: 30

====

Experimental Details: Cmax in CD1 mouse at 8.366 mg/kg administered via oral gavage by LC-MS/MS method
Type: ADME, organism-based
Design: dose 8.366 mg/kg, route oral
Assay Conditions: in vivo
Test Readout: Cmax (ng/mL)
Answers are plain numbers, in ng/mL.

Input: GET /values?readout=Cmax&item= Cc1[nH]c(C)c(-c2ccc(-c3ccc(C(F)(F)F)cc3Cl)nc2)c(=O)c1Cl
Output: 1690

====

Experimental Details: Clearance in CD1 mouse at 0.195 mg/kg, iv as bolus dose by LC-MS/MS method
Type: ADME, organism-based
Assay Conditions: in vivo
Test Readout: clearance (mL/min/kg)
Give bare numbers, in mL/min/kg.

Input: Give the measured clearance of Cc1[nH]c(C)c(-c2ccc(-c3cccc(C(F)(F)F)c3)nc2)c(=O)c1Cl .
Output: 1.52

====

Experimental Details: Half life in CD1 mouse at 0.211 mg/kg, iv as bolus dose by LC-MS/MS method
Assay type: ADME, organism-based
Assay Conditions: in vivo
Test Readout: half-life (h)
Give bare numbers, in h.

Input: Can you look up the measured half-life of Cc1[nH]c(C)c(-c2ccc(-c3ccc(C(F)(F)F)cc3Cl)nc2)c(=O)c1Cl for me?
Output: 12.8

====

Experimental Details: AUC (0 to t) in CD1 mouse at 11.512 mg/kg administered via oral gavage by LC-MS/MS method
Assay type: ADME, organism-based
Assay Conditions: in vivo
Test Readout: AUC(0-t) (µg·h/mL)
Give bare numbers, in µg·h/mL.

Input: Request the reported AUC(0-t) associated with Cc1[nH]c(C)c(-c2ccc(-c3ccc(C(F)(F)F)cc3F)nc2)c(=O)c1Cl
Output: 204
